System: CMV-luc
Test: Secondary assays, Bright-Glo luciferase in SC cells
Assay type: cell-based
Conditions: minimum CMV-luc luciferase in SC cells over 12 doses

{"columns": ["Structure Smiles String", "min SC luc (%)"],
 "data": [
  ["Cc1ccc(-c2ncn(-c3ccc(Nc4nccc(-c5cccc(N6CCOCC6)c5)n4)cc3)n2)cn1", 82.9],
  ["Cc1cnc(NC(=O)CN2CCN(c3ccccn3)CC2)s1", 4.094],
  ["Cc1cc(Nc2cc(CN3CCOCC3)c3nc(C)c(Cc4ccc(Cl)cc4F)n3n2)n[nH]1", 67.19],
  ["C=CCNc1c(O)cc2c(O)c1C[C@@H](C)C[C@H](OC)[C@H](O)[C@@H](C)/C=C(\\C)[C@H](OC(N)=O)[C@@H](OC)/C=C\\C=C(/C)C(=O)N2", 94.99],
  ["CCC(=C/[C@H](C)C/C=C/C(C)=C/[C@@H](C)C(=O)[C@@H](C)[C@H](O)[C@@H](C)C/C(C)=C/C(=O)O)/C=C/[C@@H]1OC(=O)C=C[C@@H]1C", 90.06],
  ["Nc1ccc(-c2ccc3ncc4ccc(=O)n(-c5cccc(C(F)(F)F)c5)c4c3c2)cn1", 128.4],
  ["O=C(Nc1cccc(Nc2ncc(Br)c(NCCc3cnc[nH]3)n2)c1)N1CCCC1", 100.4]
]}
